Data credit: paper PMC7961048

- STUDY TARGET: T1, unfused 14-3-3β devoid of the flexible C-terminal tail (human)
- T1 chain: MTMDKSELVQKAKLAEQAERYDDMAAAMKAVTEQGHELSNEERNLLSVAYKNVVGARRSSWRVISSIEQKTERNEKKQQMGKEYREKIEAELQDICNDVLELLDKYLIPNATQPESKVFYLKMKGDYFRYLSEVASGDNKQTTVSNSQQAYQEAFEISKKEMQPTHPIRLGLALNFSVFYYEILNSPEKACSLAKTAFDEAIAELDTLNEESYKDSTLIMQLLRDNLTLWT
- ASSAY OVERVIEW: FP
Non-standard residues stand in square brackets, D forms with d. No end group written: not given here. *: point of attachment. FITC = O=C1OC2(c3ccc(O)cc3Oc3cc(O)ccc32)c2ccc(NC(=S)*)cc21; Biotin = O=C1N[C@H]2[C@H](CS[C@H]2CCCCC(=O)*)N1; pT = C[C@@H](OP(=O)(O)O)[C@H](N)C(=O)O; ttds = NCCCOCCOCCOCCCNC(=O)CCC(=O)*; pS = N[C@@H](COP(=O)(O)O)C(=O)O
OUTCOME MEASURE: Kd (µM)
Field: numeric (µM). Do not append units.

Some binders with recorded Kd:
{Biotin-ttds}-RLQRRRE[pT]QV [HPV18 E6 phospho-PBM peptide p18E6]	42.3
{FITC}-WLRRA[pS]APLPGLK [fluorescently labeled HSPB6 phosphopeptide (fpB6)]	3.75

Next up:
Ask: State its Kd: {Biotin-ttds}-SSRTRRE[pT]QL [HPV16 E6 phospho-PBM peptide p16E6]
Result: 148
